Reported values of t½ for individual entries
Molecular target: T1, human MSR1 extracellular domain expressed with a N-terminal nonahistidine tag (His9-hMSR1); R&D Systems, Cat … (human, UniProt P21757 77-451)
T1 construct: extracellular domain; Bought reagent; also called His-hMSR1; 9xHis-hMSR1
T1 sequence: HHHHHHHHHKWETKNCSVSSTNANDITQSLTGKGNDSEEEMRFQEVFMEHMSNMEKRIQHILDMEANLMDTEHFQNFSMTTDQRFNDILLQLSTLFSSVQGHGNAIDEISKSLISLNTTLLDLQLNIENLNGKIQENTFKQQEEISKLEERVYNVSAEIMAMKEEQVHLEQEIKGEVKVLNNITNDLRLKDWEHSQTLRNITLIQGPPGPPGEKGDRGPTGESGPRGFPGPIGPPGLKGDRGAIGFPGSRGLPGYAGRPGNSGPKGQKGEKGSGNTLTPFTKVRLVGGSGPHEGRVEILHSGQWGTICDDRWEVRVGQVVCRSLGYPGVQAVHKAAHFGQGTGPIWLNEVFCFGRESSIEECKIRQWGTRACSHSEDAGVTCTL
Test: SPR Biacore T200, 25 C, antibody captured by anti-human Fc, His9-hMSR1 injected;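 note: running buffer HBS-ET pH 7.4, rates from sensorgrams fitted to a 1:1 model including mass transport limitation, KD and half-life derived from the kinetic constants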

binder	t½ [min]
H1H27729P-N297Q (antibody, human IgG1, V domains shown, human IgG1 Fc with N297Q (EU)) VH: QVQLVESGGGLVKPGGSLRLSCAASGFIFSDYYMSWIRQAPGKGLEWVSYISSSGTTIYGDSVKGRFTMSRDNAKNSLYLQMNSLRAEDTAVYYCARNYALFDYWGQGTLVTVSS VL: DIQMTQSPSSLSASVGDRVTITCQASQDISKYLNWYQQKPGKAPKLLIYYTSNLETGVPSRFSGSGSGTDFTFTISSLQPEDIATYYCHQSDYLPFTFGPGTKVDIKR	12.8
H1H27734P-N297Q (antibody, human IgG1, V domains shown, human IgG1 Fc with N297Q (EU)) VH: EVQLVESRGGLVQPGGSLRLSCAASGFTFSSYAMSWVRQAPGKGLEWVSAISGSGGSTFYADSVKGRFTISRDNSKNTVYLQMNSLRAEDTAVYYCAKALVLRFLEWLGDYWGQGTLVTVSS VL: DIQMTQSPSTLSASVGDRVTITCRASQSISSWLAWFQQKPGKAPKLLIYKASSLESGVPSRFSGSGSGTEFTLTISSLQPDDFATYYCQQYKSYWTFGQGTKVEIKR	19.4
H1H27739P-N297Q (antibody, human IgG1, V domains shown, human IgG1 Fc with N297Q (EU)) VH: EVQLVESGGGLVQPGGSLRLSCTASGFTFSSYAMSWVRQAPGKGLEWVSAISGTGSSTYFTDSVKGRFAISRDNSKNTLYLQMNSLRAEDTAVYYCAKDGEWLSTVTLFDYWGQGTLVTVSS VL: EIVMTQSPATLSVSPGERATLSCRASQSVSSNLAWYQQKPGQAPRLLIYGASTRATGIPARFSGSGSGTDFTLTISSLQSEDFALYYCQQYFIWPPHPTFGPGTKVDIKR	20.8
